assayProtocol: Metabolic stability in rat hepatocytes assessed as intrinsic clearance measured per 10^6 cells
Assay type: ADME, cell-based, Hepatocyte
readoutName: hepatocyte CLint (µL/min/1e6 cells)

COc1ccc(-n2c(=O)c(-c3ccc4nn(C)cc4c3)cc3[nH]nc(C4CC4)c32)cc1	3
Cc1ccc(-n2c(=O)c(-c3ccc4nn(C)cc4c3)cc3[nH]nc(C4CC4)c32)nc1	5

A: Cn1cc2ccc(-c3cc4[nH]nc(C5CC5)c4n(-c4ccc(OC(F)F)cc4)c3=O)cc2n1
B: O=c1c(-c2ccc(O)cc2)cc2[nH]nc(C3CC3)c2n1-c1ccc(OC(F)F)cc1
Exercise: # returns the entry with the larger hepatocyte CLint; inputs A and B // respond with label for picked entry
Key: A

====

assayProtocol: Metabolic stability in rat hepatocytes assessed as intrinsic clearance measured per 10^6 cells
Format: ADME, cell-based, Hepatocyte
readoutName: hepatocyte CLint (µL/min/1e6 cells)

A selection of reference data follows.
O=c1ccc2[nH]nc(C3CC3)c2n1-c1ccc(OC(F)F)cc1	1
COc1ccc(-c2cc3[nH]nc(C4CC4)c3c(-c3ccc(OC(F)F)cc3)n2)cc1	26

a: Cn1cc2cc(-c3cc4[nH]nc(C5CC5)c4n(-c4ccc(CCO)cc4)c3=O)ccc2n1
b: FC(F)Oc1ccc(-c2nccc3[nH]nc(C4CC4)c23)cc1
c: Cn1cc2cc(-c3cc4[nH]nc(C5CC5)c4n(-c4ccc(OC(F)F)cn4)c3=O)ccc2n1
d: Cn1cc2cc(-c3cc4[nH]nc(C5CC5)c4n(-c4ccc(CO)cc4)c3=O)ccc2n1
e: O=c1c(-c2ccccc2)cc2[nH]nc(C3CC3)c2n1-c1ccc(OC(F)F)cc1
Exercise: In this exercise, place the 5 compounds in ascending sequence of their recorded hepatocyte CLint. Write the labels, ordered according to the request.
Key: c, a, e, b, d

====

assayProtocol: Metabolic stability in rat hepatocytes assessed as intrinsic clearance measured per 10^6 cells
Assay type: ADME, cell-based, Hepatocyte
readoutName: hepatocyte CLint

COc1ccc(-c2c3c(C4CC4)n[nH]c3cc[n+]2[O-])cc1	< 1 µL/min/1e6 cells

Exercise: Requested field: hepatocyte CLint. Item: Cc1ncc(-n2c(=O)c(-c3ccc4nn(C)cc4c3)cc3[nH]nc(C4CC4)c32)cn1
Key: < 1 µL/min/1e6 cells

Exercise: Consider the compound Cn1cc2cc(-c3cc4[nH]nc(C5CC5)c4n(-c4ccc(Cl)cc4)c3=O)ccc2n1 and give its measured hepatocyte CLint.
Key: 5 µL/min/1e6 cells

====

assayProtocol: Metabolic stability in human liver microsomes assessed as intrinsic clearance
Format: ADME, Microsome
readoutName: microsomal CLint (µL/min/mg)

1: COc1ccc(-c2cc3[nH]nc(C4CC4)c3c(-c3ccc(OC(F)F)cc3)n2)cc1
2: FC(F)Oc1ccc(-c2nccc3[nH]nc(C4CC4)c23)cc1
3: COc1ccc(-c2nccc3[nH]nc(C4CC4)c23)cc1
Exercise: Task for the reader: rank each entry by its microsomal CLint, from the minimum upward. To answer, arrange all of the labels according to the requested order.
Key: 1, 2, 3
(1: 21 µL/min/mg, 2: 54 µL/min/mg, 3: 89 µL/min/mg)

====

assayProtocol: Unbound fraction in nude mouse plasma at 30 mg/kg, po measured after 24 hrs
Type: ADME, organism-based
readoutName: fraction unbound at 24 h
Quick one: just the number, no unit, thanks!

Exercise: Which fraction unbound at 24 h value is on record for Cn1cc2cc(-c3cc4[nH]nc(C5CC5)c4n(-c4ccc(OC(F)F)cc4)c3=O)ccc2n1 ?
Key: 0.029

====

assaySystem: S-adenosylmethionine synthase isoform type-2 (Homo sapiens, UniProt P31153)
Sequence (P31153 whole entry, canonical isoform): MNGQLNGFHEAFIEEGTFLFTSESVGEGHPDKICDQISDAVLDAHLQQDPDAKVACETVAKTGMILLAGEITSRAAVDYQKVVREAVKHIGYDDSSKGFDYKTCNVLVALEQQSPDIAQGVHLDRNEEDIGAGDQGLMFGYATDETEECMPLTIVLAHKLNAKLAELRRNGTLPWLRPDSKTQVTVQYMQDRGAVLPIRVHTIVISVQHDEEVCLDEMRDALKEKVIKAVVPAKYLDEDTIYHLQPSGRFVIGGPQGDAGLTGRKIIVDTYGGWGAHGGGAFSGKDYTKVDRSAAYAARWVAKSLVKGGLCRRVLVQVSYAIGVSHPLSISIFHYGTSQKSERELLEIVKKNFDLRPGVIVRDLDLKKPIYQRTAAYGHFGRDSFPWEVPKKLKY
assayProtocol: Binding affinity to MAT2a (unknown origin) assessed as dissociation constant by ITC analysis
readoutName: pKd
Quick note: pKd means taking -log10 of the concentration in moles per liter.

Exercise: Form field: reported pKd of CN(C)CCc1nnc2cc(-c3ccccc3)c3cc(Cl)ccc3n12
Key: 6.77

====

assaySystem: PXR (Homo sapiens, UniProt O75469)
Sequence (O75469 whole entry): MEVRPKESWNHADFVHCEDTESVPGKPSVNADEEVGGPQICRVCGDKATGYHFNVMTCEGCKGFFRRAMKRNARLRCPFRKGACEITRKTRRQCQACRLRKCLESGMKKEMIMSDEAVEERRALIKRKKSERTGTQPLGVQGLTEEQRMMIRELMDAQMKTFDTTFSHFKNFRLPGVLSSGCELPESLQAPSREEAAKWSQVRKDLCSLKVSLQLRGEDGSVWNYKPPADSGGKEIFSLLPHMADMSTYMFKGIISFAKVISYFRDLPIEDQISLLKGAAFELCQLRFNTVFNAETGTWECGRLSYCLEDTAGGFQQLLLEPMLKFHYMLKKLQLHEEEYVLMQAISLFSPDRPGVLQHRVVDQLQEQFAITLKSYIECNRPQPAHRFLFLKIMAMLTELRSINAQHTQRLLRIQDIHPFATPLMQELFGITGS
assayProtocol: Activation of human PXR assessed as fold change at 10 uM relative to DMSO
Format: toxicity
cond: read-out: FC
readoutName: fold induction at 10 µM
// keep it numeric: no unit symbol after the value

Exercise: Any idea what fold induction at 10 µM was measured for COc1ccc(-n2cc3cnc(NCC(F)(F)F)nc3c(-c3ccc(Br)cc3)c2=O)cc1 ?
Key: 25

====

assayProtocol: Aqueous solubility in phosphate buffer at pH 7.4 measured after 24 hrs
Format: physicochemical
readoutName: solubility at 24 h (µM)
A number alone suffices; assume µM.

Exercise: Which measured solubility at 24 h value corresponds to Cn1cc2cc(-c3cc4[nH]nc(C5CC5)c4n(-c4ccc(OC(F)F)cc4)c3=O)ccc2n1 ?
Key: 3.2

====

assayProtocol: Plasma protein binding in mouse assessed as free fraction by equilibrium dialysis
Assay type: ADME, cell-free
readoutName: fraction unbound
Give your answer as a number; write no unit.

Exercise: I would be grateful if you could share the reported fraction unbound for Cn1cc2cc(-c3cc4[nH]nc(C5CC5)c4n(-c4ccc(OC(F)F)cc4)c3=O)ccc2n1 .
Key: 0.03

====

assayProtocol: Metabolic stability in rat hepatocytes assessed as intrinsic clearance measured per 10^6 cells
Format: ADME, cell-based, Hepatocyte
In this section we review reported hepatocyte CLint values for a set of compounds.

Known hepatocyte CLint results, listed for orientation:
Cn1cc2cc(-c3cc4[nH]nc([C@@H]5CCOC5)c4n(-c4ccc(OC(F)F)cc4)c3=O)ccc2n1	4 µL/min/1e6 cells
[O-][n+]1ccc2[nH]nc(C3CC3)c2c1-c1ccc(OC(F)F)cc1	< 1 µL/min/1e6 cells

Exercise: Recorded hepatocyte CLint for Cc1ccc(-n2c(=O)c(-c3ccc4nn(C)cc4c3)cc3[nH]nc(C4CC4)c32)cn1 , please?
Key: < 1 µL/min/1e6 cells

Exercise: Please report the recorded hepatocyte CLint for COc1ccc(-c2cc3[nH]nc(C4CC4)c3n(-c3ccc(OC(F)F)cc3)c2=O)nc1 .
Key: 7 µL/min/1e6 cells

Exercise: Quick check: hepatocyte CLint of CCc1n[nH]c2cc(-c3ccc4nn(C)cc4c3)c(=O)n(-c3ccc(OC(F)F)cc3)c12 ?
Key: < 1 µL/min/1e6 cells

Exercise: Value lookup for hepatocyte CLint; key = Cc1n[nH]c2cc(-c3ccc4nn(C)cc4c3)c(=O)n(-c3ccc(OC(F)F)cc3)c12
Key: < 1 µL/min/1e6 cells
